- Species on record: Homo sapiens
- measurementNotes: Inhibition of anti-IgE antibody stimulated histamine release in human lung
- Type: functional, organism-based
measurementType: pIC50
// pIC50 here means minus log10 of the molar concentration (mol/L)

Ask | Given the compound COc1ccc2c(c1)c(OC(C)C)c(C(=O)Nc1nn[nH]n1)n2-c1ccccc1 , what is its reported pIC50?
Reply | 4.78

* * *

Assignment: determine reported inhibition for the given compounds.
- target: High affinity immunoglobulin epsilon receptor subunit alpha (Homo sapiens)
- measurementNotes: Inhibition of anti-IgE antibody-stimulated histamine release in human basophills at 33 uM
- Format: functional
Answer in %, number only, no unit symbol.

Ask | What does the record list as inhibition for COc1ccc2[nH]c(C(=O)Nc3nn[nH]n3)c(OC(C)C)c2c1 ?
Reply | 62

Ask | Any idea what inhibition was measured for CCOc1c(C(=O)Nc2nn[nH]n2)[nH]c2ccc(OC)cc12 ?
Reply | 46

Ask | Sample COc1ccc2c(c1)c(OC(C)C)c(-c1nn[nH]n1)n2-c1ccccc1 — what was its inhibition?
Reply | 37

Ask | May I ask what inhibition has been recorded for COc1ccc2c(c1)c(Sc1ccccc1)c(C(=O)Nc1nn[nH]n1)n2-c1ccccc1 ?
Reply | 82

Ask | # get_value(readout='inhibition', item= COc1ccc(-n2c(C(=O)Nc3nn[nH]n3)c(OC(C)C)c3cc(OC)ccc32)cc1 )
Reply | 49

Ask | GET /values?readout=inhibition&item= COc1ccc2c(c1)c(SC(C)C)c(C(=O)Nc1nn[nH]n1)n2-c1ccccc1
Reply | 50

Ask | Quick one: inhibition for COc1ccc2c(c1)c(OC)c(C(=O)Nc1nn[nH]n1)n2-c1ccccc1 ?
Reply | 74

Ask | Which value of inhibition has been reported for CC(C)Oc1c(C(=O)Nc2nn[nH]n2)n(-c2ccccc2)c2ccc(OCc3ccccc3)cc12 in the records?
Reply | 66

Ask | What does the data say about its inhibition? Entry: CC(C)Oc1c(C(=O)Nc2nn[nH]n2)n(-c2ccccc2)c2ccc(Br)cc12
Reply | 33

Ask | What does the data say about its inhibition? Entry: CC(C)Oc1c(C(=O)Nc2nn[nH]n2)n(-c2ccccc2)c2cc(Cl)c(Cl)cc12
Reply | 84

Ask | So what does the record say about inhibition for COc1ccc2c(c1)c(OCc1ccccc1)c(C(=O)Nc1nn[nH]n1)n2-c1ccccc1 ?
Reply | 84

Ask | What value of measured inhibition is listed for COc1ccc2c(c1)c(OC(C)C)c(C(=O)Nc1nn[nH]n1)n2Cc1ccccc1 ?
Reply | 69

Ask | Report inhibition for CCOc1c(C(=O)Nc2nn[nH]n2)n(Cc2ccccc2)c2ccc(OC)cc12 please.
Reply | 55

Ask | Record request: inhibition value, item COc1ccc2c(OC(C)C)c(C(=O)Nc3nn[nH]n3)n(-c3ccccc3)c2c1
Reply | 50

Ask | # query: inhibition of entry COc1ccc2c(c1)c(SC)c(C(=O)Nc1nn[nH]n1)n2-c1ccccc1
Reply | 66

Ask | inhibition lookup needed for COc1ccc2c(c1)c(OC(C)C)c(C(=O)Nc1nn[nH]n1)n2C , thanks.
Reply | 45

Ask | What does the data say about its inhibition? Entry: COc1ccc2c(c1)c(OC(C)C)c(C(=O)Nc1nn[nH]n1)n2-c1ccccc1
Reply | 82

Ask | Need inhibition, item CC(C)Oc1c(C(=O)Nc2nn[nH]n2)n(-c2ccccc2)c2ccc(Cl)cc12
Reply | 72

Ask | inhibition for CCOc1c(C(=O)Nc2nn[nH]n2)n(-c2ccccc2)c2ccc(OC)cc12 ?
Reply | 73
